Where these numbers come from: patent US11014911B2

target: CDK2/Cyclin E1 full length (Homo sapiens (Human), UniProt P24941); experiment: CDK2/Cyclin E1 full length mobility shift assay
pKi: −log10 of the molar value.
MEASURE_NAME: pKi

I: COc1cc(CC(=O)Nc2cc([C@H]3CC[C@@H](OC(=O)N4CCC4(C)C)C3)[nH]n2)ccn1 [Example 146]
II: CC1(NC(=O)O[C@@H]2CC[C@H](c3cc(NC(=O)Cc4ccccc4)n[nH]3)C2)CCOC1 (single isomer, unassigned) [Example 124]
III: CCNC(=O)O[C@@H]1CC[C@H](c2cc(NC(=O)Cc3cc(F)cc(F)c3)n[nH]2)C1 [Example 233]
IV: CCCNC(=O)O[C@H]1CC[C@@H](c2cc(NC(=O)Cc3cnc(OC)s3)n[nH]2)C1 [Example 189]
Arrange the 4 entries by pKi so the values rise. Your reply should list the labels following the order given in the request.
III, IV, II, I

I: CC[C@H](C)NC(=O)O[C@@H]1CC[C@H](c2cc(NC(=O)c3ccnn3CCO)n[nH]2)C1 [Example 53]
II: CCCNC(=O)O[C@@H]1CC[C@H](c2cc(NC(=O)c3ccnn3C)n[nH]2)C1 [Example 164]
Which is greater in pKi, the first item I or the second item II ? Indicate your choice by writing its label.
I

====

biological target: CDK2/Cyclin E1 full length (Homo sapiens (Human), UniProt P24941); assay: CDK2/Cyclin E1 full length mobility shift assay
MEASURE_NAME: Ki (nM)

Solved cases (5 shown):
>>> numeric_readout("CC(C)(O)CNC(=O)O[C@@H]1CC[C@H](c2cc(NC(=O)Cc3cc(F)cc(F)c3)n[nH]2)C1")
4.07
>>> numeric_readout("Cc1cc(CC(=O)Nc2cc([C@H]3CC[C@@H](OC(=O)N4[C@@H](C)CC[C@@H]4C)C3)[nH]n2)on1")
0.28
>>> numeric_readout("COc1ccc(CC(=O)Nc2cc([C@H]3CC[C@@H](OC(=O)NC4(C)CC4)C3)[nH]n2)nc1")
0.5
>>> numeric_readout("CC[C@H](C)NC(=O)O[C@@H]1CC[C@H](c2cc(NC(=O)Cc3ccc4nc(C)cn4n3)n[nH]2)C1")
0.11
>>> numeric_readout("COc1cc(CC(=O)Nc2cc([C@H]3CC[C@@H](OC(=O)NCC(F)(F)F)C3)[nH]n2)ccn1")
1.69

1: Cc1cnc(CC(=O)Nc2cc([C@H]3CC[C@@H](OC(=O)NC(C)CC(F)(F)F)C3)[nH]n2)cn1 (single isomer, unassigned) [Example 74]
2: Cc1cnc(CC(=O)Nc2cc([C@H]3CC[C@@H](OC(=O)N[C@@H](C)[C@@H](C)F)C3)[nH]n2)o1
When the recorded Ki values are compared, which is smaller: that of 1 or that of 2 ? Your answer should be the label attached to the chosen record.
1
(1: 0.3 nM, 2: 1.34 nM)

====

molecular target: CDK2/Cyclin E1 full length (Homo sapiens (Human), UniProt P24941); experiment: CDK2/Cyclin E1 full length mobility shift assay
MEASURE_NAME: Ki (nM)

The examples below pair each entry with its known result.
>>> numeric_readout("Cc1cnc(CC(=O)Nc2cc([C@H]3CC[C@@H](OC(=O)N[C@@H](C)C4CC4)C3)[nH]n2)cn1")
0.83
>>> numeric_readout("CCNC(=O)O[C@@H]1CC[C@H](c2cc(NC(=O)Cc3cnc(C)s3)n[nH]2)C1")
2.06
>>> numeric_readout("COc1cc(CC(=O)Nc2cc([C@H]3CC[C@@H](OC(=O)N4C[C@@H](C#N)[C@@H]4C)C3)[nH]n2)ccn1 (single isomer, unassigned) [Example 155]")
0.13
>>> numeric_readout("CCC(CO)CNC(=O)O[C@@H]1CC[C@H](c2cc(NC(=O)Cc3cnc(C)s3)n[nH]2)C1 (single isomer, unassigned) [Example 529]")
0.73

A: CC(CC(F)(F)F)NC(=O)O[C@@H]1CC[C@H](c2cc(NC(=O)c3ccnn3CCN(C)C)[nH]n2)C1 (single isomer, unassigned) [Example 410]
B: Cc1nnc(CC(=O)Nc2cc([C@H]3CC[C@@H](OC(=O)NC4(C)CCC4)C3)[nH]n2)s1
C: CCCN(CCC)C(=O)O[C@@H]1CC[C@H](c2cc(NC(=O)Cc3ccno3)n[nH]2)C1
Order the 3 compounds from highest to lowest Ki. Would you mind listing the labels in the order requested?
C, A, B
(C: 2.67 nM, A: 0.42 nM, B: 0.17 nM)
